Taken from the RNAGym collection of RNA variant scans (doi:10.7554/elife.80360).

B1: CPEB3 Ribozyme (parent)
chain: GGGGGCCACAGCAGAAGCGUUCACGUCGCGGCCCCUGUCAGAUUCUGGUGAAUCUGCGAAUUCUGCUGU

Variants of: B1
protocol: self-cleavage, relative activity (ratio to wild type); higher = more cleavage; co-transcriptional
Each item that follows carries a reported self-cleavage.

biosequence	self-cleavage
GGGGGCCACAGCAGAAGCGUUCACGUCGCGGCCCUUGUCGGAUUCUGGUGAAUCUGCGAAUUCUGCUGU	0.914
GGGGGCCACAGCAGAGGCGUUCACGUCGCGGCCCCUGUAAGAUUCUGGUGAAUCUGCGAAUUCUGCUGU	0.591
GGGGGCCACAGCAGAAGCGUUCACGUCGCGGCCCCUGUCAGCUUCUGGUGAAUCUGCGAAUGCUGCUGU	0.757
GGGGGCCACAGCAGAAGCGUUCACGUCGCGGCCCCUGUCAGAUUCUGGUGAAUCUUCGAAUUGUGCUGU	0.485
GUGGGCCACAGCAGAAGCGUUCACGUCGCGGCCCCUGUCAGAUUCUGGUGAACCUGCGAAUUCUGCUGU	0.0669
GGGGGCCACAGCAGAAGCGUUCACGUCGCGGCCCCUGUCAGAUUCUUGUGAAUCUGUGAAUUCUGCUGU	0.378
GGGGGCCACAGCAGAAGCGCUCACGUCGCGGCCCCUGUCAGAUUCUGGUGAAUCUGGGAAUUCUGCUGU	0.261
GGGGGCCACAGCAGAAGCGUUCGCGUCGCGGCCCCUGUCAGAUUCUGGUGAUUCUGCGAAUUCUGCUGU	0.933
GCGGGCCACAGCACAAGCGUUCACGUCGCGGCCCCUGUCAGAUUCUGGUGAAUCUGCGAAUUCUGCUGU	0.0627
GGGGGCCACAGCAGAAGCGUUCACGUCGCGGCCCCUGUCAGCUUCUGGUGAAUCUGCGAAUUGUGCUGU	0.542
GGGGGCCACAGCAGAAGCGUUCACGUCGCGGCCCCUGUCAGAUUCCGGUGAAUCUGCGAAUUCUGCUGC	1.06
GGGGGCCACAGGAGAAGCGUUCACGUCGCGGCCCCUGUCAGAUUCUGGUGAAUCUGCGAAUUCAGCUGU	0.508
GGUGGCCACAGCAGAAGCGUUCACGUGGCGGCCCCUGUCAGAUUCUGGUGAAUCUGCGAAUUCUGCUGU	0.0583
GGGGGCCACAGCAGAAGCGUUCACGUCGCGGCCCCCGUCAGAUUCAGGUGAAUCUGCGAAUUCUGCUGU	0.922
GGGGGCCACAGCAGAAGCGUUCACGUCGCGGCCCCCGUCAGAUUCUGGAGAAUCUGCGAAUUCUGCUGU	0.923
GGGGGCCACAGCAGAAGCGUUCACGUCGCGGCCCCUGUCAGAUUCUGGUGAAUCGGUGAAUUCUGCUGU	0.378
GGGGGACACAGCAGAAGCGUUCACGUCGCGGCGCCUGUCAGAUUCUGGUGAAUCUGCGAAUUCUGCUGU	0.108
GGGGGCCACAGCAUAAGCGUUCACGUCGCGGCCCCUGUCAGAUUCUGGUGAUUCUGCGAAUUCUGCUGU	0.767
GGGGGCCGCAGCAGAAGCCUUCACGUCGCGGCCCCUGUCAGAUUCUGGUGAAUCUGCGAAUUCUGCUGU	0.161
GGGGGCCACAGCAGAAGAGUUCACGACGCGGCCCCUGUCAGAUUCUGGUGAAUCUGCGAAUUCUGCUGU	0.128
GGGGGCCACAGCAGAAGCGUUCACGUCGCCGCCCCUGUCAGAUUCUAGUGAAUCUGCGAAUUCUGCUGU	0.617
GGGGGCCCCAGCAGACGCGUUCACGUCGCGGCCCCUGUCAGAUUCUGGUGAAUCUGCGAAUUCUGCUGU	0.325
GGGGGCCACAGCAGGAGCGUUCACGUCGCGGCCCCUGUCAGAUUCUGGUGCAUCUGCGAAUUCUGCUGU	0.993
GGGGGUAACAGCAGAAGCGUUCACGUCGCGGCCCCUGUCAGAUUCUGGUGAAUCUGCGAAUUCUGCUGU	0.254
GGGGGCCACAGCAGAAGCGUUCACGUCGCGUCCCCUCUCAGAUUCUGGUGAAUCUGCGAAUUCUGCUGU	0.189
UGGGGCCACAGCAGAAGCGUUCACGUCGCGGCCCCUGUCAGAUUCUGGUGAAGCUGCGAAUUCUGCUGU	0.101
UGGGGCCACAGCAGAAGCGUUCACGUCGAGGCCCCUGUCAGAUUCUGGUGAAUCUGCGAAUUCUGCUGU	0.111
GGGGGCCACAGCAGAAGUGUUCACGUCGCGACCCCUGUCAGAUUCUGGUGAAUCUGCGAAUUCUGCUGU	0.313
GGAGGCCUCAGCAGAAGCGUUCACGUCGCGGCCCCUGUCAGAUUCUGGUGAAUCUGCGAAUUCUGCUGU	0.697
GGGGCCCACAGCAGAAGCGUUCACGUCGCGGCACCUGUCAGAUUCUGGUGAAUCUGCGAAUUCUGCUGU	0.302
GGGCGCCACAGCAGAAGCGUUCACGUCGCGGCCCCUGUCAGAUUCUGGUGAAUCUGCGAAUUCUGCAGU	0.902
GGGGGCCACAGCAAAAGCGAUCACGUCGCGGCCCCUGUCAGAUUCUGGUGAAUCUGCGAAUUCUGCUGU	0.132
GGGGGCCACAGCAGAAGCGUUCACCUCGCGGCCCCUGUCAGAUUUUGGUGAAUCUGCGAAUUCUGCUGU	0.141
GGGGGCCACAGCAGAAGCGUUCACGUCGCGGCCCCUGUCAGAUUCUGGUGAAUCUUCGAAUUCUCCUGU	0.506
GGGGGCCACAGCACAAGCGUUCACGUCGCGGCCCCUGUCAGAUUCUGGUGAAUCUGCGAAUUCUGCUGC	0.968
GGGGGCCACAGUAGAAGCGUUUACGUCGCGGCCCCUGUCAGAUUCUGGUGAAUCUGCGAAUUCUGCUGU	0.16
GGGGGCCACAGUAGAAGCGUUCACGUCGCGGCCCCUGUCAGUUUCUGGUGAAUCUGCGAAUUCUGCUGU	0.91
GGGGGCCACAGCAGAAGCGUUCACGUCGCGGCCCCUGUAAGAUUCUGGUGAAUCUGCGAAUUCUGCUGG	0.964
GGGGGCCCCAGCAGAAGCGUUCACGUGGCGGCCCCUGUCAGAUUCUGGUGAAUCUGCGAAUUCUGCUGU	0.112
GGGGGCCACAGCGGAAGCGUUCACGUCGCGGCCCCUGUCAGAGUCUGGUGAAUCUGCGAAUUCUGCUGU	0.539
GGGGGCCACAGCAGAAGCGUGCACGUCGCGGCCCCUGUCAGCUUCUGGUGAAUCUGCGAAUUCUGCUGU	0.303
GGGGGCCCCAGCAGAAGCGUUCACGUCGCGGUCCCUGUCAGAUUCUGGUGAAUCUGCGAAUUCUGCUGU	0.954
GGGGGCCACAGCAGAAGCGUCCACGUCGCGGCCCCCGUCAGAUUCUGGUGAAUCUGCGAAUUCUGCUGU	0.479
GGGGGCCACAGCAGAAGCGUUCACGUCGCGGCCCCUGUCAGAAUUUGGUGAAUCUGCGAAUUCUGCUGU	1.03
GGGGGCGACAGCAGAAGCGUUCACGUCGCGGCCCCUGUCAGAUUCUGGUGAAUCUGCCAAUUCUGCUGU	0.285
GGGGGCCACAGCAGAAGAGUUCACGUCGCGGCCCCUGUCAGCUUCUGGUGAAUCUGCGAAUUCUGCUGU	0.166
GGGGGCUACAGCAGAAGCGUUCACGUCGCGGCCCCUGUCAGAUUCUGGUCAAUCUGCGAAUUCUGCUGU	0.965
GGGGGCCACAGCACAAGCGUUCACGUGGCGGCCCCUGUCAGAUUCUGGUGAAUCUGCGAAUUCUGCUGU	0.159
GGGGGCCACAGCAGAAGCGUUCACGUCGCGGUCCCUGUCAGAUUCUGGUUAAUCUGCGAAUUCUGCUGU	0.978
GGGGGCCACAGCAGCAGCGUUCACGUCGCGGCCCCUGUUAGAUUCUGGUGAAUCUGCGAAUUCUGCUGU	0.535
GGGGACCACAGCAGAAGGGUUCACGUCGCGGCCCCUGUCAGAUUCUGGUGAAUCUGCGAAUUCUGCUGU	0.0833
GGGGGCGGCAGCAGAAGCGUUCACGUCGCGGCCCCUGUCAGAUUCUGGUGAAUCUGCGAAUUCUGCUGU	0.346
GGGGGCCACAGCAGAAGCGUUCACGUCGCGGCCCCUGUCAGAUUCUGGUGAAUGUGCGAAUUCUGCCGU	0.819
GGGGGCCACAGCAGAAGCGUUCACGUCGCGGCCCCUGUCAGAUUCUGGUGAAUCUCCGAAUUCUGCUGG	0.925
GGGGGCCACACCAGAAGCGUUCACGUCGCGGCCCCCGUCAGAUUCUGGUGAAUCUGCGAAUUCUGCUGU	0.62
GGGGGCAACGGCAGAAGCGUUCACGUCGCGGCCCCUGUCAGAUUCUGGUGAAUCUGCGAAUUCUGCUGU	0.865
GGGGGCCACAGGAGAAGCGUUCACGUCGCGGCCCCAGUCAGAUUCUGGUGAAUCUGCGAAUUCUGCUGU	0.228
GGGGGCCACAGCAGAAGCGUUCACGUCGCGGCCCCUGUCAGAUUCUGGUGAAUCUUCGAAUUCUGCUUU	0.985
GGGGGCCACAGCAGAAGCGUUCACGUCGUGGCCCCUGUCAGAUUCUGGUGAAUCUUCGAAUUCUGCUGU	0.198
GGGGGCCACAGCAGAAGCGUUCACGUCGCGGCCCCUGUCAGACUCUGGUGAAUCUGCGACUUCUGCUGU	0.227
GGGGGCCACAGCUGAAGCGUUCACGUCGCGGCCCCUGUCAGAUUCUGGUGAAUCUGCGAAUUCUGUUGU	0.583
GGGGGCCACAGCAGAAGCGUUCACGUCGCGGCCCCUCUCAGAUUCUGGUGAAUCUGCGAAUUCUGCUAU	0.304
GGUGGCCACACCAGAAGCGUUCACGUCGCGGCCCCUGUCAGAUUCUGGUGAAUCUGCGAAUUCUGCUGU	0.0634
GGGGUCCACAGCAGAAGCGUUCAGGUCGCGGCCCCUGUCAGAUUCUGGUGAAUCUGCGAAUUCUGCUGU	0.0967
GGGGGCCACAGCAGAAGCGUUCACGUCGCGGCCCCUGUCAGAUUCUGGUAAAUCUGCGAAUGCUGCUGU	0.959
GGGGGCCACAUCAGAAGCGUUCACGUCGCGGCCCCUCUCAGAUUCUGGUGAAUCUGCGAAUUCUGCUGU	0.213
GGGGGCCACAGCAGAAGCGUUCACAUCGCGGCCCCUGUCAGAUUCUGGUGAAUCUGCGAUUUCUGCUGU	0.188
GGGGGGCACAGCAGAAGCGUUCACGUCGCGGCCCCUGUCGGAUUCUGGUGAAUCUGCGAAUUCUGCUGU	0.307
GGGGGCCACAGCAGAAGCGUUCACGUCGCGGCCCCUGUCAGAUUCCGGUGAAUCCGCGAAUUCUGCUGU	0.701
GGGGGCCACUGCAGAAGCGUCCACGUCGCGGCCCCUGUCAGAUUCUGGUGAAUCUGCGAAUUCUGCUGU	0.912
GGGGGCCACAGCAGAAGCGUUCACGUCGCGGCCCCUGUGAGAUCCUGGUGAAUCUGCGAAUUCUGCUGU	0.58
GGGGGCCACAGCAGAAGCGUUCACGUCGCGGCCCCUGUCAGAUUCUGGUGAAUUCGCGAAUUCUGCUGU	0.888
GGGGGCCACAGCAGAAACCUUCACGUCGCGGCCCCUGUCAGAUUCUGGUGAAUCUGCGAAUUCUGCUGU	0.095
GGGGGCCACAGCAGAUGCGUUCACGUCGCGGCCCCUGUCAGAUUCUGGAGAAUCUGCGAAUUCUGCUGU	0.96
AGGGGCCACAGCAGAAGCGUUCACGUCGCGGCCCCUGUCAGAUUCUGGUGAAUCUGCGAAUUCUGCUGC	0.187
AGGGGCCACAGCAGAAGCGUUCACGUCGCGGCCCAUGUCAGAUUCUGGUGAAUCUGCGAAUUCUGCUGU	0.0188
GGGGGCCCCAGCAGAAGCGUUCACGUCGCGGCCCCUGUCAGAUUCUGGUGAAUCUGCGACUUCUGCUGU	0.382
